target: 5-HT1A (Sus scrofa, UniProt A0A4X1UTF5); construct: membrane preparations from porcine cortex; from tissue; host or cells: porcine cortex; assay: radioligand binding assay, serotonin 5-HT1A receptor, [3H]WAY 100635; details: porcine cortex membranes, mean of two to five experiments in triplicate, read-out: Ki 5-HT1a
Sequence (A0A4X1UTF5 1-422): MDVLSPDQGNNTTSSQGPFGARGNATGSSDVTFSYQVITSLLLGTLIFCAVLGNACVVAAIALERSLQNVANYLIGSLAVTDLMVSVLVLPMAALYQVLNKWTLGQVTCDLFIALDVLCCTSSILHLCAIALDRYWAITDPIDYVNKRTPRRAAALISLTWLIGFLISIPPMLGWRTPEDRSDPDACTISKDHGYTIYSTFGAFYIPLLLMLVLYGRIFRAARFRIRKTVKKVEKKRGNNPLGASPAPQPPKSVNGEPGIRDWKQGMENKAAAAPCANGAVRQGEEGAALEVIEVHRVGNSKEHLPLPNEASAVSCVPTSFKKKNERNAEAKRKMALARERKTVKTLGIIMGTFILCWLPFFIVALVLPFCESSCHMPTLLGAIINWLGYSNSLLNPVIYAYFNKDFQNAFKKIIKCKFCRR
MEASURED_PARAMETER: Ki

Here's what some known entries look like.
CSc1ccc(C(=O)N2CCC(F)(CNCc3ccc(C)cn3)CC2)s1 [Example E12] = < 50 nM
Cc1ccc(CNCC2(F)CCN(C(=O)c3coc(Br)c3)CC2)nc1 [Example E34] = < 50 nM
Cc1ccc(CNCC2(F)CCN(C(=O)c3cc(C)cs3)CC2)nc1 [Example E10] = < 50 nM
Cc1ccc(CNCC2(F)CCN(C(=O)c3ccc(Cl)s3)CC2)nc1 [Example E4] = < 50 nM
Cc1ccc(CNCC2(F)CCN(C(=O)c3scc4c3CCCC4)CC2)nc1 [Example E29] = < 50 nM
Cc1ccc(CNCC2(F)CCN(C(=O)c3ccoc3)CC2)nc1 [Example E33] = 50 to 500 nM

-- ask Ki for Cc1ccc(CNCC2(F)CCN(C(=O)c3cc(Br)c(Br)o3)CC2)nc1 [Example E32] ?
-- reply < 50 nM

-- ask Would you mind doing Cc1ccc(CNCC2(F)CCN(C(=O)c3sccc3-n3cccc3)CC2)nc1 [Example E17] as well?
-- reply 50 to 500 nM

-- ask Check Cc1ccc(CNCC2(F)CCN(C(=O)c3ccc(-c4ccccc4)s3)CC2)nc1 [Example E13] too.
-- reply 50 to 500 nM
